Sourced from patent US20220106398A1

- target.system: T1, human His6-GITR (human, UniProt Q9Y5U5 26-162)
- T1 construct: His6-tagged recombinant protein; also called hGITR-His; human GITR-His
- T1 sequence: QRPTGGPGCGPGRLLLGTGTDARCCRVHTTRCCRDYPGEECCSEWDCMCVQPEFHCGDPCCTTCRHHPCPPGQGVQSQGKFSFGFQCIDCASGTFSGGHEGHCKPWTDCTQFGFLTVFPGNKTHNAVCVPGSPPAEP
- test.name: ELISA, scFv periplasmic extract on coated His6-GITR
t if hGITR-His/BKG is below 20 fold over background. f if not; exact matches included in f.

Some solved entries appear below for comparison.
binder: GITR-Mab-14 scFv (scFv, V domains shown, scFv in periplasmic extract, V5 tag) VH: EVQLLESGGGLVKPGGSLRLSCAASGFRFSVYWMSWVRQAPGKGLEWVSGISGSGGTTYYADSVKGRFTISRDDSKNTLYLQMNSLKTEDTAVYYCARVRRDGYNYNFDYWGQGTLVTVSS VL: DIQMTQSPSSLSASVGDRVTITCQASQDISNYLNWYQQKPGKAPKLLIFDASSLEAGVPSRFSGSGSGTDFTLTISSLQPEDFATYYCQQANSFPPTFGQGTEVEIK
group.label: f
//
binder: GITR-Mab-32 scFv (scFv, V domains shown, scFv in periplasmic extract, V5 tag) VH: QVQLVQSGAEVKKPGASVKVSCKASGGTFSSYAISWVRQAPGQGLEWMGWMNPNSGDTGYAQKFQGRVTMTRDTSTSTVYMELSSLRSEDTAVYYCARGPWYFDLWGRGTLVTVSS VL: DIQMTQSPSSLSASVGDRVTITCRVSQGISNSLAWYQQKPGKAPKLLIYAASSLQSGVPSRFSGSGSGTDFTLTISSLQPEDFATYYCQQSYSTVYTFGQGTKLEIK
group.label: t
//
binder: GITR-Mab-33 scFv (scFv, V domains shown, scFv in periplasmic extract, V5 tag) VH: EVQLLESGGGLVKPGGSLRLSCAASGFMFSSYSMNWVRQAPGKGLEWVSYISGNSGYTNYADSVKGRFTISRDDSKNTLYLQMNSLKTEDTAVYYCARRLHGMDVWGQGTTVTVSS VL: DIQMTQSPSSLSASVGDRVTITCRASQSISTWLAWYQQKPGKAPKLLIYDASNLETGVPSRFSGSGSGTDFTLTISSLQPEDFATYYCQQAYRFPVAFGGGTKVEIK
group.label: t
//
binder: GITR-Mab-19 scFv (scFv, V domains shown, scFv in periplasmic extract, V5 tag) VH: QVQLVQSGAEVKKPGASVKVSCKASGYTFTSYDINWVRQAPGQGLEWVGIINPSGGSTSYAQKFQGRVTMTRDTSTSTVYMELSSLRSEDTAVYYCARASSGGYYYYYGMDVWGQGTTVTVSS VL: DIQMTQSPSSLSASVGDRVTITCRASQDIVNWLAWYQQKPGKAPKLLIYAASSLQSGVPSRFSGSGSGTDFTLTISSLQPEDFATYYCQQYYSYPLTFGQGTRLEIK
group.label: t
//
binder: GITR-Mab-38 scFv (scFv, V domains shown, scFv in periplasmic extract, V5 tag) VH: QVQLVQSGAEVKKPGASVKVSCKASGGTFRNYAINWVRQAPGQGLEWMGWMNPNSGNTGYAQKFQGRVTMTRDTSTSTVYMELSSLRSEDTAVYYCAREDVDTASQAYFDYWGQGTLVTVSS VL: DIQMTQSPSSLSASVGDRVTITCRASQGISNYLAWYQQKPGKAPKLLIYSASNLQSGVPSRFSGSGSGTDFTLTISSLQPEDFATYYCQQGYSSRYTFGQGTKLEIK
group.label: t

Given GITR-Mab-24 scFv (scFv, V domains shown, scFv in periplasmic extract, V5 tag) VH: QVQLVQSGAEVKKPGASVKVSCKASGGTFNNYAINWVRQAPGQGLEWMGTINPRDGDTTYAQKFQGRVTMTRDTSTSTVYMELSSLRSEDTAVYYCARVGYYGSGSYYSYYGMDVWGQGTTVTVSS VL: DIQMTQSPSSLSASVGDRVTITCRASQNITNWLAWYQQKPGKAPKLLIYAASSLQSGVPSRFSGSGSGTDFTLTISSLQPEDFATYYCQQAYSFPWTFGQGTKVEIK , is recorded hGITR-His/BKG strictly lower than 20 fold over background?
t
